- System: A375 multi-cell spheroids with HUVEC/MSC, viability
- test-summary: Anticancer human tumor A375 cell line growth inhibition [GQUAD];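 note: spheroids exposed to compounds for seven days before readout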
- measurement-setup: second compound 3.16 µM; first compound 0.00999 µM; stronger effect = lower value
measured-property: viability, T/C (%)
Write the number in % without appending the unit.

Solved cases (2 shown):
| compound | study-target | viability, T/C (%) |
| --- | --- | --- |
| Cn1ncnc1[C@H]1c2n[nH]c(=O)c3cc(F)cc(c23)N[C@@H]1c1ccc(F)cc1 + Cc1[nH]c2ccc(F)cc2c1-c1nc2c3cccnc3c3ncccc3c2[nH]1 | A375 multi-cell spheroids with HUVEC/MSC, viability | 92.3 |
| Cc1[nH]c2ccccc2c1CCNCc1ccc(/C=C/C(=O)NO)cc1 + CN(C)c1ccc(Nc2c3ccc(NC(=O)CCN4CCCC4)cc3nc3cc(NC(=O)CCN4CCCC4)ccc23)cc1 | A375 multi-cell spheroids with HUVEC/MSC, viability | 113 |

QUERY: Find the recorded viability, T/C belonging to CCc1c2c(nc3ccc(O)cc13)-c1cc3c(c(=O)n1C2)COC(=O)[C@]3(O)CC + Cc1cnc(CNC(=O)c2c(=O)c3ccc(N4CCCN(C)CC4)nc3n3c2sc2ccccc23)cn1 and report it.
RESULT: 14.4

----------
- System: A375 multi-cell spheroids with HUVEC/MSC, viability
- test-summary: Anticancer human tumor A375 cell line growth inhibition [GQUAD];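 note: spheroids exposed to compounds for seven days before readout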
- measurement-setup: second compound 0.0316 µM; first compound 0.316 µM; stronger effect = lower value
measured-property: viability, T/C (%)
Unit % implied. Number only.

| compound | viability, T/C / % |
| --- | --- |
| COc1ccc([C@@H](O)c2cc(-c3ncnc4cc(N5CCOCC5)ccc34)c(F)cc2Cl)nn1 + CN(C)c1ccc(Nc2c3ccc(NC(=O)CCN4CCCC4)cc3nc3cc(NC(=O)CCN4CCCC4)ccc23)cc1 | 106 |

QUERY: Entry under review: C=CC(=O)N1CCN(c2nc(=O)n(-c3c(C)ccnc3C(C)C)c3nc(-c4c(O)cccc4F)c(F)cc23)C(C)C1 (stereo not given) + Cc1[nH]c2ccc(F)cc2c1-c1nc2c3cccnc3c3ncccc3c2[nH]1 . Reported viability, T/C?
RESULT: 96.6

QUERY: Reported viability, T/C, compound CC1COCCN1c1cc(C2(O)CC3CCC(C2)O3)c2cnn(-c3ccn[nH]3)c2n1 (stereo not given) + Cc1[nH]c2ccc(F)cc2c1-c1nc2c3cccnc3c3ncccc3c2[nH]1 : ____
RESULT: 51.9

QUERY: Which viability, T/C is listed for Cn1ncnc1[C@H]1c2n[nH]c(=O)c3cc(F)cc(c23)N[C@@H]1c1ccc(F)cc1 + CN(C)c1ccc(Nc2c3ccc(NC(=O)CCN4CCCC4)cc3nc3cc(NC(=O)CCN4CCCC4)ccc23)cc1 ?
RESULT: 97.1

QUERY: Please report the recorded viability, T/C for O=C(c1cc(Cc2n[nH]c(=O)c3ccccc23)ccc1F)N1CCN(C(=O)C2CC2)CC1 + Cc1[nH]c2ccc(F)cc2c1-c1nc2c3cccnc3c3ncccc3c2[nH]1 .
RESULT: 86.7

----------
- Tested on: A375 multi-cell spheroids with HUVEC/MSC, viability
- test-summary: Anticancer human tumor A375 cell line growth inhibition [GQUAD];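 note: spheroids exposed to compounds for seven days before readout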
- measurement-setup: curve of first compound; second compound 0.0316 µM
Here the recorded IC50 is given for each entry.

Worked cases, answers included:
| molecule | IC50 |
| --- | --- |
| CCCS(=O)(=O)Nc1ccc(F)c(C(=O)c2c[nH]c3ncc(-c4ccc(Cl)cc4)cc23)c1F + Cc1cnc(CNC(=O)c2c(=O)c3ccc(N4CCCN(C)CC4)nc3n3c2sc2ccccc23)cn1 | < 0.0316 µM |
| CCc1c2c(nc3ccc(O)cc13)-c1cc3c(c(=O)n1C2)COC(=O)[C@]3(O)CC + Cc1cnc(CNC(=O)c2c(=O)c3ccc(N4CCCN(C)CC4)nc3n3c2sc2ccccc23)cn1 | < 0.000999 µM |
| CC1COCCN1c1cc(-c2ccnn2C)c2ccnc(-c3ccn[nH]3)c2n1 (stereo unspecified) + Cc1[nH]c2ccc(F)cc2c1-c1nc2c3cccnc3c3ncccc3c2[nH]1 | 0.628 µM |
| COc1ccc([C@@H](O)c2cc(-c3ncnc4cc(N5CCOCC5)ccc34)c(F)cc2Cl)nn1 + CN(C)c1ccc(Nc2c3ccc(NC(=O)CCN4CCCC4)cc3nc3cc(NC(=O)CCN4CCCC4)ccc23)cc1 | > 10 µM |
| O=C(c1cc(Cc2n[nH]c(=O)c3ccccc23)ccc1F)N1CCN(C(=O)C2CC2)CC1 + Cc1[nH]c2ccc(F)cc2c1-c1nc2c3cccnc3c3ncccc3c2[nH]1 | > 10 µM |

QUERY: Fill in the blank: the reported IC50 of C=CC(=O)N1CCN(c2nc(=O)n(-c3c(C)ccnc3C(C)C)c3nc(-c4c(O)cccc4F)c(F)cc23)C(C)C1 (stereo unspecified) + Cc1[nH]c2ccc(F)cc2c1-c1nc2c3cccnc3c3ncccc3c2[nH]1 is ____.
RESULT: > 10 µM

----------
- Test system: A375 multi-cell spheroids with HUVEC/MSC, viability
- test-summary: Anticancer human tumor A375 cell line growth inhibition [GQUAD];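 note: spheroids exposed to compounds for seven days before readout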
- measurement-setup: second compound 0.0316 µM; first compound 0.0999 µM; stronger effect = lower value
Below: a set of entries, each annotated with reported viability, T/C.
Enter your answer as a number in %; do not include the unit.

| compound | viability, T/C [%] |
| --- | --- |
| Cn1ncnc1[C@H]1c2n[nH]c(=O)c3cc(F)cc(c23)N[C@@H]1c1ccc(F)cc1 + CN(C)c1ccc(Nc2c3ccc(NC(=O)CCN4CCCC4)cc3nc3cc(NC(=O)CCN4CCCC4)ccc23)cc1 | 105 |
| CC[C@@]1(O)C(=O)OCc2c1cc1n(c2=O)Cc2cc3c(CN(C)C)c(O)ccc3nc2-1 + Cc1[nH]c2ccc(F)cc2c1-c1nc2c3cccnc3c3ncccc3c2[nH]1 | 23.4 |
| Cc1[nH]c2ccccc2c1CCNCc1ccc(/C=C/C(=O)NO)cc1 + Cc1[nH]c2ccc(F)cc2c1-c1nc2c3cccnc3c3ncccc3c2[nH]1 | 73.4 |

QUERY: Dear colleague, I am looking for the recorded viability, T/C of the following compound: Cc1[nH]c2ccccc2c1CCNCc1ccc(/C=C/C(=O)NO)cc1 + Cc1cnc(CNC(=O)c2c(=O)c3ccc(N4CCCN(C)CC4)nc3n3c2sc2ccccc23)cn1
RESULT: 54.4

QUERY: // viability, T/C lookup, key: CCc1c2c(nc3ccc(O)cc13)-c1cc3c(c(=O)n1C2)COC(=O)[C@]3(O)CC + CN(C)c1ccc(Nc2c3ccc(NC(=O)CCN4CCCC4)cc3nc3cc(NC(=O)CCN4CCCC4)ccc23)cc1
RESULT: 5.91

----------
viability, T/C values for the compounds below.
- Tested on: A375 multi-cell spheroids with HUVEC/MSC, viability
- test-summary: Anticancer human tumor A375 cell line growth inhibition [GQUAD];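 note: spheroids exposed to compounds for seven days before readout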
- measurement-setup: second compound 1 µM; first compound 3.16 µM; stronger effect = lower value

| compound | measured-property | result |
| --- | --- | --- |
| C=CCn1c(=O)c2cnc(Nc3ccc(N4CCN(C)CC4)cc3)nc2n1-c1cccc(C(C)(C)O)n1 + Cc1cnc(CNC(=O)c2c(=O)c3ccc(N4CCCN(C)CC4)nc3n3c2sc2ccccc23)cn1 | viability, T/C | 16.1% |
| O=C(c1cc(Cc2n[nH]c(=O)c3ccccc23)ccc1F)N1CCN(C(=O)C2CC2)CC1 + Cc1cnc(CNC(=O)c2c(=O)c3ccc(N4CCCN(C)CC4)nc3n3c2sc2ccccc23)cn1 | viability, T/C | 38% |
| Cc1cccc(N(C)C(=O)C2C(O)CCN2c2nc(C)cc(C(F)(F)F)c2C#N)c1 (stereo not given) + Cc1[nH]c2ccc(F)cc2c1-c1nc2c3cccnc3c3ncccc3c2[nH]1 | viability, T/C | 103% |
| C=CC(=O)N1CCN(c2nc(=O)n(-c3c(C)ccnc3C(C)C)c3nc(-c4c(O)cccc4F)c(F)cc23)C(C)C1 (stereo not given) + Cc1cnc(CNC(=O)c2c(=O)c3ccc(N4CCCN(C)CC4)nc3n3c2sc2ccccc23)cn1 | viability, T/C | 45.1% |
| CC(=O)O[C@H]1C(=O)[C@@]2(C)[C@H]([C@H](OC(=O)c3ccccc3)[C@]3(O)C[C@H](OC(=O)[C@H](O)[C@@H](NC(=O)c4ccccc4)c4ccccc4)C(C)=C1C3(C)C)[C@]1(OC(C)=O)CO[C@@H]1C[C@@H]2O + Cc1[nH]c2ccc(F)cc2c1-c1nc2c3cccnc3c3ncccc3c2[nH]1 | viability, T/C | 13.9% |

QUERY: Param item = O=c1[nH]cc(F)c(=O)[nH]1 + Cc1[nH]c2ccc(F)cc2c1-c1nc2c3cccnc3c3ncccc3c2[nH]1 ; retrieve measured viability, T/C.
RESULT: 115%

QUERY: Which viability, T/C is listed for CC1COCCN1c1cc(C2(O)CC3CCC(C2)O3)c2cnn(-c3ccn[nH]3)c2n1 (stereo not given) + Cc1[nH]c2ccc(F)cc2c1-c1nc2c3cccnc3c3ncccc3c2[nH]1 ?
RESULT: 13.3%

QUERY: Reported viability, T/C for CC1COCCN1c1cc(-c2ccnn2C)c2ccnc(-c3ccn[nH]3)c2n1 (stereo not given) + Cc1[nH]c2ccc(F)cc2c1-c1nc2c3cccnc3c3ncccc3c2[nH]1 : what is it?
RESULT: 15.6%

QUERY: Any idea what viability, T/C was measured for Nc1ccn(C2OC(CO)C(O)C2(F)F)c(=O)n1 (stereo not given) + Cc1cnc(CNC(=O)c2c(=O)c3ccc(N4CCCN(C)CC4)nc3n3c2sc2ccccc23)cn1 ?
RESULT: 12.5%

QUERY: Requested read-out: viability, T/C. Entry: COc1ncnc(C2CC2)c1-c1ncc2cnn(Cc3ccc(-c4nc(C(F)(F)F)cn4C(C)C)cc3)c2n1 + Cc1[nH]c2ccc(F)cc2c1-c1nc2c3cccnc3c3ncccc3c2[nH]1
RESULT: 100%

QUERY: Look up viability, T/C: C#Cc1c(F)ccc2cc(O)cc(-c3ncc4c(N5CC6CCC(C5)N6)nc(OCC56CCCN5CC(F)C6)nc4c3F)c12 (stereo not given) + Cc1[nH]c2ccc(F)cc2c1-c1nc2c3cccnc3c3ncccc3c2[nH]1
RESULT: 105%

QUERY: Given C=CC(=O)N1CCN(c2nc(=O)n(-c3c(C)ccnc3C(C)C)c3nc(-c4c(O)cccc4F)c(F)cc23)C(C)C1 (stereo not given) + Cc1[nH]c2ccc(F)cc2c1-c1nc2c3cccnc3c3ncccc3c2[nH]1 , state its recorded viability, T/C.
RESULT: 161%

QUERY: Record request: viability, T/C value, item Cc1cccc(N(C)C(=O)C2C(O)CCN2c2nc(C)cc(C(F)(F)F)c2C#N)c1 (stereo not given) + CN(C)c1ccc(Nc2c3ccc(NC(=O)CCN4CCCC4)cc3nc3cc(NC(=O)CCN4CCCC4)ccc23)cc1
RESULT: 104%

QUERY: Which viability, T/C is reported for this compound? COc1cccc2c1C(=O)c1c(O)c3c(c(O)c1C2=O)CC(O)(C(=O)CO)CC3OC1CC(N)C(O)C(C)O1 (stereo not given) + Cc1[nH]c2ccc(F)cc2c1-c1nc2c3cccnc3c3ncccc3c2[nH]1
RESULT: 3.16%

QUERY: Bench note: what viability, T/C did Nc1ccn(C2OC(CO)C(O)C2(F)F)c(=O)n1 (stereo not given) + Cc1[nH]c2ccc(F)cc2c1-c1nc2c3cccnc3c3ncccc3c2[nH]1 show?
RESULT: 12.8%

QUERY: For the compound O=c1[nH]cc(F)c(=O)[nH]1 + CN(C)c1ccc(Nc2c3ccc(NC(=O)CCN4CCCC4)cc3nc3cc(NC(=O)CCN4CCCC4)ccc23)cc1 , what viability, T/C is on record?
RESULT: 105%

QUERY: Returns the measured viability, T/C for the input compound. Input: C=CCn1c(=O)c2cnc(Nc3ccc(N4CCN(C)CC4)cc3)nc2n1-c1cccc(C(C)(C)O)n1 + CN(C)c1ccc(Nc2c3ccc(NC(=O)CCN4CCCC4)cc3nc3cc(NC(=O)CCN4CCCC4)ccc23)cc1
RESULT: 15.3%

QUERY: Quick check: viability, T/C of O=C(NO)c1cnc(N2CCN(S(=O)(=O)c3ccc4ccccc4c3)CC2)nc1 + Cc1cnc(CNC(=O)c2c(=O)c3ccc(N4CCCN(C)CC4)nc3n3c2sc2ccccc23)cn1 ?
RESULT: 0.09%

QUERY: Could you share which viability, T/C value was measured for CC(=O)O[C@H]1C(=O)[C@@]2(C)[C@H]([C@H](OC(=O)c3ccccc3)[C@]3(O)C[C@H](OC(=O)[C@H](O)[C@@H](NC(=O)c4ccccc4)c4ccccc4)C(C)=C1C3(C)C)[C@]1(OC(C)=O)CO[C@@H]1C[C@@H]2O + Cc1cnc(CNC(=O)c2c(=O)c3ccc(N4CCCN(C)CC4)nc3n3c2sc2ccccc23)cn1 ?
RESULT: 31%

QUERY: What value of measured viability, T/C is listed for COc1cccc2c1C(=O)c1c(O)c3c(c(O)c1C2=O)CC(O)(C(=O)CO)CC3OC1CC(N)C(O)C(C)O1 (stereo not given) + CN(C)c1ccc(Nc2c3ccc(NC(=O)CCN4CCCC4)cc3nc3cc(NC(=O)CCN4CCCC4)ccc23)cc1 ?
RESULT: 2.55%
